Documented TGI across a set of compounds
Test system: OVCAR-5 ovarian
Test: NCI tumour cell line growth inhibition, 48 h
READOUT_KIND: TGI

1. NC(=O)NC(=O)CI = 26.1 µM
2. Cc1cc2nc3c(C#N)c(-c4ccccc4)/c(=C\Nc4cccc(C(F)(F)F)c4)c(=O)n3c2cc1C = > 100 µM
3. C/C=C/C1(NS(=O)(=O)c2ccc(C)cc2)CCC(C(C)(C)C)CC1 (stereo not drawn) = 39.5 µM
4. Fc1ccc(Nc2nc(Nc3ccc(-c4nc5ccccc5[nH]4)cc3)nc(N3CCCC3)n2)cc1 = 8.19 µM
5. CC(=O)NC1C(OCC(=O)NC(C)C(=O)NC(CCC(=O)NCCCCCNc2ccc([N+](=O)[O-])c3[nH]c4ccccc4c(=O)c23)C(N)=O)C(O)C(CO)OC1(C)OCc1ccccc1 (stereo not drawn) = > 50 µM
6. C(=N\NC1=NCCCN1)/c1ccc(-c2cn3cc(/C=N/NC4=NCCCN4)ccc3n2)cc1 = > 100 µM
7. Cn1c(=O)c(Cc2ccc(F)cc2F)cc2cnc(NC3CCOCC3)nc21 = > 25 µM
8. Cc1cn2c(/C=C3/C(=O)Nc4ccccc43)c(-c3ccccc3)nc2s1 = > 100 µM
9. COCOc1cc(OC)ccc1C=O = > 100 µM
10. CC(C)(C)c1cc(C(O)(C(F)(F)F)C(F)(F)F)c2c(c1)C(C(F)(F)F)(C(F)(F)F)OC(c1ccccc1)(C(C)(C)C)N2 (stereo not drawn) = 50.9 µM
11. Nc1nc(Cl)nc2c1ncn2C1O[C@H](CO)[C@@H](O)[C@@H]1F (stereo partly drawn) = > 100 µM
12. CC(C)(C)[C@@H]1NC(=O)CN1C(=O)OCc1ccccc1 = > 100 µM
13. O=C(Nc1ccccc1Cl)c1ccc(NC2=C(Cl)C(=O)N(Cc3ccccc3)C2=O)cc1 = > 100 µM
14. OC(Cn1cncn1)(Cn1cncn1)c1ccc(Cl)cc1Cl = > 100 µM
15. C#CCNC(Cc1ccccc1)C(=O)O (stereo not drawn) = > 100 µM
16. CSC(=S)N/N=C(\C)c1ccccn1 = 22.2 µM
17. COC(=O)C1Cc2c([nH]c3ccccc23)-c2[nH]c3ccccc3c2CC(NC(C)=O)C(=O)NCC(=O)N1 (stereo not drawn) = > 100 µM
18. C[N+](C)(C)CCCCCc1c2nc(c(CCCCC[N+](C)(C)C)c3ccc([nH]3)c(CCCCC[N+](C)(C)C)c3ccc([nH]3)c(CCCCC[N+](C)(C)C)c3nc1C=C3)C=C2 = > 100 µM
19. C=C1C(=O)O[C@H]2C1C[C@@H](O)[C@@]1(C)OC1CC[C@@]1(C)O[C@H]21 (stereo partly drawn) = 63.9 µM
20. COc1cc2c(/C=C3\C(=O)Nc4ccc(Br)cc43)c(Cl)n(C)c2cc1C = 15.9 µM
21. C[C@H](NC(=O)OC1C2C=CC(O)C1CC2)c1ccccc1 (stereo partly drawn) = > 100 µM
22. Cc1ccccc1NC(=O)NC(CC(N)=O)c1ccc2c(c1)nc(-c1cccc(Oc3ccc(C(C)(C)C)cc3)c1)n2CCCN1CCCCC1C (stereo not drawn) = 12 µM
23. CCOc1ccc(N=NC2C(=O)N(C(=O)CC(=O)Nc3ccc(Cl)cc3)N=C2C)cc1 (stereo not drawn) = > 100 µM
24. C=C1C(=O)OC2C(C)C3C=CC(=O)[C@@]3(C)C(OC(=O)/C(C)=C/C)C1[C@@H]2OC(C)=O (stereo partly drawn) = 3.32 µM
25. CCOC(=O)c1c(OCC)[nH]c(=O)c(C(c2ccc(F)cc2)c2c(O)c(C(=O)OCC)c(OCC)[nH]c2=O)c1O = > 100 µM
26. Fc1ccc(C(=NCc2ccccc2)N2CCOCC2)cc1 = > 100 µM
27. Cc1cc(Cl)ccc1NC(=O)C1C(=O)N(c2ccc(Cl)cc2C)C(=O)/C1=N\N (stereo not drawn) = > 100 µM
28. CC1SC(c2cccs2)N(NC(=O)C(O)c2ccccc2)C1=O (stereo not drawn) = > 100 µM
29. CCCCc1ccc(N2C(=O)c3cc(C)cnc3S2(=O)=O)cc1 = > 100 µM
30. COC(=O)c1nc2c(C)c(O)c(O)c([C@H](C)CCC=C(C)C)c2o1 = > 100 µM
31. COc1ccc(Cc2ccccc2C(=O)O)c2ccccc12 = 59.6 µM
32. O=C(/C=N/O)c1c(-c2ccccc2)[nH]c(-c2ccccc2)c1-c1ccccc1 = 21.7 µM
33. CC(C)(C)c1cc(C2COC(=O)COCCOCC(=O)OCCOCCO2)cc(C(C)(C)C)c1O (stereo not drawn) = 54.8 µM
34. C=C1C(=O)O[C@H]2[C@H]1CC/C(COC(=O)CCC(=O)OC/C1=C/CC[C@@]3(C)O[C@H]3[C@H]3OC(=O)C(=C)[C@@H]3CC1)=C\CC[C@@]1(C)O[C@@H]21 = 6.03 µM
35. O=C1c2cccnc2-c2nc(-c3ccc([N+](=O)[O-])cc3)cc3c2c1nc1ccccc13 = 27.5 µM
36. Cc1c2c(nn1-c1ccc(S/N=C3\SCC(=O)CN3c3ccccc3)cc1)-c1ccccc1CC2 = > 50 µM
37. Cn1cc(C(=O)C2CCCCC2)ccc1=O = > 100 µM
38. CCOC(=O)Cc1csc(/N=C\c2c(O)c3ccccc3oc2=O)n1 = > 100 µM

###

Tested on: A498 renal
Experiment: NCI tumour cell line growth inhibition, 48 h; in the data active = GI50 below about 0.43 µM; inactive = the rest
Classes used: yes (1) = active, no (0) = inactive

1. CC(CN(CP(=O)([O-])[O-])CP(=O)([O-])[O-])N(CP(=O)([O-])[O-])CP(=O)([O-])[O-].N[C@@H]1CCCC[C@@H]1N.[Pt+2] (stereo not drawn) = no (0)
2. CCCNc1nc(-c2ccc(OC)cc2)nc2ccccc12 = no (0)
3. COc1cc2c(/C=C3\C(=O)Nc4ccc(Br)cc43)c(Cl)n(C)c2cc1C = yes (1)
4. CSC(=S)N/N=C(\C)c1ccccn1 = no (0)
5. C=C1C(=O)O[C@H]2[C@H]1CC/C(COC(=O)CCC(=O)OC/C1=C/CC[C@@]3(C)O[C@H]3[C@H]3OC(=O)C(=C)[C@@H]3CC1)=C\CC[C@@]1(C)O[C@@H]21 = no (0)
6. N#Cc1c2ccccc2c2nnc3cc(Cl)c(Cl)cc3n12 = no (0)
7. Oc1ccc2ccccc2c1/C=N\Nc1ccccn1 = no (0)
8. CCOc1ccc2c(c1)/C(=C\C=C\C1CC(C)C3CC(OCC)CCC3N1CC)CC(C)N2CC (stereo not drawn) = yes (1)
9. COc1ccc(C2CC(c3cc(OC)c(OC)c(OC)c3)=NN2)cc1 (stereo not drawn) = no (0)
10. COC(=O)c1ccc2c(c1)nc(-c1ccc(Cl)cc1)n2-c1cc(C(C)(C)C)[nH]n1 = no (0)
11. COc1ccc2c(CNCCCCO)cc3cc4c(cc3c2c1)OCO4 = no (0)
12. Cc1ccc(Cl)cc1Nc1nc(C(F)(F)F)ccc1C(=O)Oc1ccc(Cl)cc1 = no (0)
13. NS(=O)(=O)c1ccc(-n2nc(-c3ccc(Cl)cc3)cc2C2=CC(=O)C=CC2=O)cc1 = no (0)
14. C[n+]1c2ccccc2c(NC2CCNCC2)c2[nH]c3ccccc3c21 = no (0)
15. CC1=C(C(=O)Nc2ccc(F)c(Cl)c2)C(c2cccc(Cl)c2)NC(=O)N1 (stereo not drawn) = no (0)
16. COc1ccc(-n2c(N)c(C(=O)NCCN3CCOCC3)c3nc4ccccc4nc32)cc1OC = no (0)
17. O=C(CCN1CCCC1)Nc1ccc2c(NCCCCc3ccccc3)c3ccccc3nc2c1 = no (0)
18. O=Cc1ccc(C(F)(F)F)cc1.[C-]#[O+].[C-]#[O+].[C-]#[O+].[Cr] = no (0)

###

Documented TGI across a set of compounds
Tested on: SF-268 CNS
Experiment: NCI tumour cell line growth inhibition, 48 h
READOUT_KIND: TGI (µM)

1) N#Cc1c2ccccc2c2nnc3cc(Cl)c(Cl)cc3n12 = 83.3
2) Cc1c2cc[n+](C)cc2c(C)c2c1[nH]c1ccc(O)cc12 = 23.7
3) COC(=O)c1oc2c(C(=O)/C=C/c3ccc(OC)cc3)c(OCCCN3CCCCC3)ccc2c1C = 4.69
4) CC1=C(C(=O)Nc2ccc(F)c(Cl)c2)C(c2cccc(Cl)c2)NC(=O)N1 (centres undefined) = 39.4
5) COc1ccc2c(CNCCCCO)cc3cc4c(cc3c2c1)OCO4 = 1.15

###

System: UACC-62 melanoma
Experiment: NCI tumour cell line growth inhibition, 48 h
READOUT_KIND: TGI

1. COC(=O)CCCc1ccc2c(c1)CCC2 = > 100 µM
2. COc1ccc(Cc2ccccc2C(=O)O)c2ccccc12 = 29.9 µM
3. CC(=O)OC(C)(C)C1CCC(C)(C(O)COc2ccc(CCNC(=O)c3ccccc3)cc2)O1 (stereo not given) = > 100 µM
4. CCOC1NC(=O)Oc2ccccc21 (stereo not given) = > 100 µM
5. Cc1cc(S(N)(=O)=O)c(S/C(=N\NS(=O)(=O)c2ccc(Cl)cc2)c2ccc(Cl)cc2)cc1Cl = > 100 µM
6. Cc1ccc(/C=C2\CCOC2=O)cc1 = > 100 µM
7. NS(=O)(=O)c1ccc(CNC(=S)NC(=O)Nc2ccc(Cl)c(Cl)c2)cc1 = 29.3 µM
8. CCOC(=O)c1c(OCC)[nH]c(=O)c(C(c2ccc(F)cc2)c2c(O)c(C(=O)OCC)c(OCC)[nH]c2=O)c1O = 30.3 µM
9. C[Si](C)(C)C#C[I+]c1ccccc1 = > 100 µM
10. CC(=O)Nc1ccc(C(=O)N[C@@H]2C(=O)N3[C@@H]2SC(C)(C)[C@@H]3C(=O)O)cn1 = > 100 µM
11. O=c1[nH]c2ccc(CC(=S)N3CCN(c4ccccc4)CC3)cc2s1 = > 100 µM
12. C=C1C(=O)O[C@H]2C1C[C@@H](O)[C@@]1(C)OC1CC[C@@]1(C)O[C@H]21 (stereo not given in full) = 31.4 µM
13. COc1cccc(-n2nnc3c(N)nc(N)nc32)c1 = > 100 µM
14. O=Cc1cc(O)c(O)c(O)c1-c1c(C=O)cc(O)c(O)c1O = > 100 µM
15. CC(=O)OC1COC(N2C(=O)C(=O)c3cc(Br)c([N+](=O)[O-])cc32)C(OC(C)=O)C1OC(C)=O (stereo not given) = > 100 µM
16. Cc1cc(Cl)ccc1NC(=O)C1C(=O)N(c2ccc(Cl)cc2C)C(=O)/C1=N\N (stereo not given) = > 100 µM
17. CC1OC(OC2C(CO)OC(O[C@H]3CC[C@@]4(C)C(=CC[C@H]5[C@@H]6C[C@@H]7O[C@](O)(CC[C@@H](C)COC8OC(CO)C(O)C(O)C8O)[C@@H](C)[C@@H]7[C@@]6(C)CC[C@@H]54)C3)C(OC3OC(C)C(O)C(O)C3O)C2O)C(O)C(O)C1O (stereo not given in full) = 5.68 µM
18. NC(=O)c1cc2ccccc2c(N=Nc2ccccc2)c1O = > 100 µM
19. CCOC(=O)c1ccc(N=C/C=C(\Nc2ccc(C(=O)OCC)cc2)c2ccc3ccccc3c2)cc1 = 30.5 µM
20. COC(=O)c1ccc(/C=C/C2=CC(=O)C=CC2=O)cc1 = 40.2 µM

All values here come from PubChem BioAssay (NCI).
